- measured-on: GSPT1 (Homo sapiens, UniProt P15170+Q96SW2)
- Construct: host or cells: HEK293 LgBiT cell line
- Sequence (P15170 whole entry): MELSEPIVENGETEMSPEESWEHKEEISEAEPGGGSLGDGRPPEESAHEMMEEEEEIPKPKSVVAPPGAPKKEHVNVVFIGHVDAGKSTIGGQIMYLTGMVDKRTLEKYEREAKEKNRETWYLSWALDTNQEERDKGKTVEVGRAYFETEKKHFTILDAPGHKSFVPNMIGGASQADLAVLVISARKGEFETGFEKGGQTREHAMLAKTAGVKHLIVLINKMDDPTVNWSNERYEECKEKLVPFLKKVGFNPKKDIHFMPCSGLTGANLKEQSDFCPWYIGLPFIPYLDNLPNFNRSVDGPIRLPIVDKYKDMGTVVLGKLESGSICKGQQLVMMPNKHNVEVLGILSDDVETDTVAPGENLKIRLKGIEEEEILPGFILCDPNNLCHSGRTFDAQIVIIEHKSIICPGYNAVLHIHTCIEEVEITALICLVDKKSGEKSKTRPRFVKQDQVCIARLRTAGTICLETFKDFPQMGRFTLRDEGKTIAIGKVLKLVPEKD
- Sequence (Q96SW2 whole entry): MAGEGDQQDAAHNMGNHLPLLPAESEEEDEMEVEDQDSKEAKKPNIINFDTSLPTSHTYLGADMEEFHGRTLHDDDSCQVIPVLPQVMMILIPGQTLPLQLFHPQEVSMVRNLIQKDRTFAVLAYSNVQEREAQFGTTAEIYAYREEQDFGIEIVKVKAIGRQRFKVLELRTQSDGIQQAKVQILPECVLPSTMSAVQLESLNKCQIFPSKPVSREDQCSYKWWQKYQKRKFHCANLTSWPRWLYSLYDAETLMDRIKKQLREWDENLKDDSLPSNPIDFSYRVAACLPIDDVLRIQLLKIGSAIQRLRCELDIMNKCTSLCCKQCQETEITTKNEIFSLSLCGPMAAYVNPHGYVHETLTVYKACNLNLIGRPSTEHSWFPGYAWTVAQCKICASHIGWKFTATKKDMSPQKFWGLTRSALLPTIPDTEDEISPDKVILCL
- Sequence (Q16531 whole entry partner): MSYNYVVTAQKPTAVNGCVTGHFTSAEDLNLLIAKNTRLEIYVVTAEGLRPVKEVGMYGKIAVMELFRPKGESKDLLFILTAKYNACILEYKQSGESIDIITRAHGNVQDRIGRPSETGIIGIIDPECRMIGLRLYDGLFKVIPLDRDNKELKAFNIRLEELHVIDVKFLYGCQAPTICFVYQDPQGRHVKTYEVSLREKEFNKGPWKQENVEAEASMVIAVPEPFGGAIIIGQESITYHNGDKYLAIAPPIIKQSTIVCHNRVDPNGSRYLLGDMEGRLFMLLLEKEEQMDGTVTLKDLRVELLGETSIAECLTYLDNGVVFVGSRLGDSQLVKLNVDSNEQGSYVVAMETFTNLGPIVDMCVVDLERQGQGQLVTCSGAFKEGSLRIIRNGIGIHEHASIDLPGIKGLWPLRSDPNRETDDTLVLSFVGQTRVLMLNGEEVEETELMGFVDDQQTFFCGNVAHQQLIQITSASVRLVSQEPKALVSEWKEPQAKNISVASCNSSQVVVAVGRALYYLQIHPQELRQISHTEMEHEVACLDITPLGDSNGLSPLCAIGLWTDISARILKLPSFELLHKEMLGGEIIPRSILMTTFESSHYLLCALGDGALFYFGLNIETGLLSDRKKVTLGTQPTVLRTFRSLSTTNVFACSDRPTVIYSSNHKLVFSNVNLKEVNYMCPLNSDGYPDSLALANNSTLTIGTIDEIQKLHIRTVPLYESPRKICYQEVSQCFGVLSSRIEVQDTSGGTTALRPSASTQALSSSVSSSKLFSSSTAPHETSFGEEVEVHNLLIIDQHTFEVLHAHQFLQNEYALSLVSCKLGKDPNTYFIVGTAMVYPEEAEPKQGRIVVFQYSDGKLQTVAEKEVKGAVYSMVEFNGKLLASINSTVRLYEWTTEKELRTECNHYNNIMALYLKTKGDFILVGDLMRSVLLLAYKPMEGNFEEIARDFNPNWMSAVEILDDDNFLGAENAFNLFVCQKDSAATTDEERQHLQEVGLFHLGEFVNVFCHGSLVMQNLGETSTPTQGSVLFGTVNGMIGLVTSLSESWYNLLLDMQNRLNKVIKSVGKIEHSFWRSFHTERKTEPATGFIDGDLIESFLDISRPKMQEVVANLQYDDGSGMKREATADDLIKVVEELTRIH
- assay-protocol: GSPT1 HiBit degradation assay
- Format: cell-based
- condition-set: Table 3; HEK293 LgBiT cells expressing GSPT1_HiBiT, luminescence after 6 hours
outcome-measure: DC50

Query COc1cc(N2CCN(C(=O)COCCOCCOCCOCCOCCOCCOCCOCCc3cc(Cl)cc(NC(=O)NCc4ccc5c(c4)CN(C4CCC(=O)NC4=O)C5=O)c3)CC2)ccc1Nc1ncc(Cl)c(Nc2ccccc2P(C)(C)=O)n1 (centres unmarked) yields DC50 of 5 to 10 µM

Query C=C(F)C(=O)N1CCN(c2nc(OC[C@H]3CCCN3CCCOCCOCCOCCOCCOCCOCCCCCCCCc3cc(Cl)cc(NC(=O)NCc4ccc5c(c4)CN(C4CCC(=O)NC4=O)C5=O)c3)nc3c2CCN(c2cccc4cccc(Cl)c24)C3)C[C@H]1CC#N (some centres unmarked) yields DC50 of < 0.25 µM

Query C=C(F)C(=O)N1CCN(c2nc(OC[C@@H]3CCCN3CCOCCOCCOCCOCCOCCOCCOCCCCCc3cc(Cl)cc(NC(=O)NCc4ccc5c(c4)CN(C4CCC(=O)NC4=O)C5=O)c3)nc3c2CCN(c2cccc4cccc(Cl)c24)C3)C[C@@H]1CC#N (some centres unmarked) yields DC50 of 0.25 to 5 µM

Query C=CC(=O)Nc1cc(Nc2nccc(-c3cn(C)c4ccccc34)n2)c(OC)cc1N(C)CCN(C)CCOCCOCCOCCOCCOCCOCCCCCCCCc1cc(Cl)cc(NC(=O)NCc2ccc3c(c2)CN(C2CCC(=O)NC2=O)C3=O)c1 (centres unmarked) yields DC50 of < 0.25 µM

New cases:
Query C=CC(=O)N1CCN(c2nc(NCCOCCOCCOCCOCCOCCOCCOCCOCCc3cc(Cl)cc(NC(=O)NCc4ccc5c(c4)CN(C4CCC(=O)NC4=O)C5=O)c3)nc3c(F)c(-c4cc(O)cc5ccccc45)c(Cl)cc23)CC1 (centres unmarked) yields DC50 of > 10 µM

* * *

- measured-on: GSPT1 (Homo sapiens, UniProt P15170+Q96SW2)
- Construct: host or cells: HEK293 LgBiT cell line
- assay-protocol: GSPT1 HiBit degradation assay
- Format: cell-based
- condition-set: Table 3A; HEK293 LgBiT cells expressing GSPT1_HiBiT, luminescence after 6 hours
outcome-measure: DC50

Query C=C(F)C(=O)N1CCN(c2nc(OC[C@@H]3CCCN3CCCOCCOCCOCCOCCOCCOCCOCCOCCOCCCCCc3ccc(Cl)cc3NC(=O)NCc3ccc4c(c3)CN(C3CCC(=O)NC3=O)C4=O)nc3c2CCN(c2cccc4cccc(Cl)c24)C3)C[C@@H]1CC#N (stereo partly shown) yields DC50 of 0.25 to 5 µM

Query CN(C/C=C/C(=O)N1CCN(c2nc(OC[C@@H]3CCCN3C)nc3c2CCN(c2cccc4cccc(Cl)c24)C3)C[C@@H]1CC#N)CCOCCOCCOCCOCCCCCCCCc1cc(Cl)cc(NC(=O)NCc2ccc3c(c2)CN(C2CCC(=O)NC2=O)C3=O)c1 (stereo partly shown) yields DC50 of < 0.25 µM

Query COc1cc(N2CCN(C(=O)COCCOCCOCCOCCOCCOCCOCCOCCOCCOCCOc3cc(Cl)cc(NC(=O)NCc4ccc5c(c4)CN(C4CCC(=O)NC4=O)C5=O)c3)CC2)ccc1Nc1ncc(Cl)c(Nc2ccccc2P(C)(C)=O)n1 (stereo not shown) yields DC50 of > 10 µM

Query CN(C/C=C/C(=O)N1CCN(c2nc(OC[C@@H]3CCCN3C)nc3c2CCN(c2cccc4cccc(Cl)c24)C3)C[C@@H]1CC#N)CCOCCOCCOCCOCCOCCOCCOCCOCCOCCOCCCCCCCCc1cc(Cl)cc(NC(=O)NCc2ccc3c(c2)CN(C2CCC(=O)NC2=O)C3=O)c1 (stereo partly shown) yields DC50 of 0.25 to 5 µM

Query C=CC(=O)Nc1cc(Nc2nccc(-c3cn(C)c4ccccc34)n2)c(OC)cc1N(C)CCN(C)CCOCCOCCOCCOCCOCCOCCOCCCCCc1cc(Cl)cc(NC(=O)NCc2ccc3c(c2)CN(C2CCC(=O)NC2=O)C3=O)c1 (stereo not shown) yields DC50 of 0.25 to 5 µM

New cases:
Query CN(C/C=C/C(=O)N1CCN(c2nc(OC[C@@H]3CCCN3C)nc3c2CCN(c2cccc4cccc(Cl)c24)C3)C[C@@H]1CC#N)CCOCCOCCOCCOCCOCCOCCOCCOCCOCCCCCc1cc(Cl)cc(NC(=O)NCc2ccc3c(c2)CN(C2CCC(=O)N(C)C2=O)C3=O)c1 (stereo partly shown) yields DC50 of 5 to 10 µM

Query C=CC(=O)N1CCN(c2nc(=O)n(-c3c(C)cc(OCCOCCOCCOCCOCCOCCOCCOCCOCCOCCCCCc4cc(Cl)cc(NC(=O)NCc5ccc6c(c5)CN(C5CCC(=O)NC5=O)C6=O)c4)nc3C(C)C)c3nc(-c4c(O)cccc4F)c(F)cc23)[C@@H](C)C1 (stereo partly shown) yields DC50 of 0.25 to 5 µM

Query CN(C/C=C/C(=O)N1CCN(c2nc(OC[C@@H]3CCCN3C)nc3c2CCN(c2cccc4cccc(Cl)c24)C3)C[C@@H]1CC#N)CCOCCOCCOCCOCCOCCCCCc1cc(Cl)cc(NC(=O)NCc2ccc3c(c2)CN(C2CCC(=O)N(C)C2=O)C3=O)c1 (stereo partly shown) yields DC50 of 0.25 to 5 µM

Query C=C(F)C(=O)N1CCN(c2nc(OC[C@@H]3CCCN3CCCOCCOCCOCCOCCOCCOCCOCCOCCOCCCCCc3cccc(NC(=O)NCc4ccc5c(c4)CN(C4CCC(=O)NC4=O)C5=O)n3)nc3c2CCN(c2cccc4cccc(Cl)c24)C3)C[C@@H]1CC#N (stereo partly shown) yields DC50 of 0.25 to 5 µM

Query COc1cc(N2CCN(C(=O)COCCOCCOCCOCCOCCOCCOCCCCCc3cc(Cl)cc(NC(=O)NCc4ccc5c(c4)CN(C4CCC(=O)NC4=O)C5=O)c3)CC2)ccc1Nc1ncc(Cl)c(Nc2ccccc2P(C)(C)=O)n1 (stereo not shown) yields DC50 of 0.25 to 5 µM

* * *

Recorded DC50 for the following molecules
- measured-on: GSPT1 (Homo sapiens, UniProt P15170+Q96SW2)
- Construct: host or cells: HEK293 LgBiT cell line
- assay-protocol: GSPT1 HiBit degradation assay
- Assay type: cell-based
- condition-set: Table 3; HEK293 LgBiT cells expressing GSPT1_HiBiT, luminescence after 6 hours

Consider the reported DC50 for these molecules:
Query C=C(F)C(=O)N1CCN(c2nc(OC[C@@H]3CCCN3CCCCCCCCc3cccc4c3CN(C3CCC(=O)NC3=O)C4=O)nc3c2CCN(c2cccc4cccc(Cl)c24)C3)C[C@@H]1CC#N (stereo partly shown) yields DC50 of > 10 µM

Query C=CC(=O)N1CCN(c2nc(NCCOCCOCCOCCOCCOCCOCCOCCOCCOCCOCCOc3cc(Cl)cc(NC(=O)NCc4ccc5c(c4)CN(C4CCC(=O)NC4=O)C5=O)c3)nc3c(F)c(-c4cc(O)cc5ccccc45)c(Cl)cc23)CC1 (stereo not shown) yields DC50 of > 10 µM

Query C=C(F)C(=O)N1CCN(c2nc(OC[C@@H]3CCCN3CCOCCOCCOCCOCCOCCOCCOCCOCCOCCOCCOc3cc(Cl)cc(NC(=O)NCc4ccc5c(c4)CN(C4CCC(=O)NC4=O)C5=O)c3)nc3c2CCN(c2cccc4cccc(Cl)c24)C3)C[C@@H]1CC#N (stereo partly shown) yields DC50 of 5 to 10 µM

Query CC1(C)[C@H](NC(=O)c2ccc(OCCOCCOCCOCCOCCOCCOCCOCCOCCOCCOCCc3cc(Cl)cc(NC(=O)NCc4ccc5c(c4)CN(C4CCC(=O)NC4=O)C5=O)c3)cc2)C(C)(C)[C@H]1Oc1ccc(C#N)c(Cl)c1 (stereo partly shown) yields DC50 of 0.25 to 5 µM

New cases:
Query CC1(C)[C@H](NC(=O)c2ccc(OCCOCCOCCOCCOCCOCCOCCOCCOCCOc3cc(Cl)cc(NC(=O)NCc4ccc5c(c4)CN(C4CCC(=O)NC4=O)C5=O)c3)cc2)C(C)(C)[C@H]1Oc1ccc(C#N)c(Cl)c1 (stereo partly shown) yields DC50 of 0.25 to 5 µM

Query Cc1c(CC(=O)N(C)C)ccc(NC(=O)c2nn([C@@H]3CCCN(C(=O)/C=C/CN(C)CCOCCOCCOCCOCCOCCOCCOCCOCCCCCCCCc4cc(Cl)cc(NC(=O)NCc5ccc6c(c5)CN(C5CCC(=O)NC5=O)C6=O)c4)C3)c3ncnc(N)c23)c1C (stereo partly shown) yields DC50 of < 0.25 µM

Query C=CC(=O)N1CCN(c2nc(NCCCCCCCCc3cc(Cl)cc(NC(=O)NCc4ccc5c(c4)CN(C4CCC(=O)NC4=O)C5=O)c3)nc3c(F)c(-c4cc(O)cc5ccccc45)c(Cl)cc23)CC1 (stereo not shown) yields DC50 of < 0.25 µM
